Sourced from PubChem BioAssay (NCI)

Tested on: MDA-MB-468 breast
Experiment: NCI tumour cell line growth inhibition, 384-well format; in the data active means GI50 below about 0.43 µM; inactive means the rest
Classes to choose from: true (active), false (inactive)

Inquiry: How did this test come out for `O=C(c1ccc(F)c(F)c1Nc1ccc(I)cc1F)N1CC(O)([C@H]2CCCCN2)C1` ?
Reply text: false

Inquiry: How did this test come out for `C[C@H](Nc1ccc(C#N)n(C)c1=O)c1cc2cc(Cl)ccc2[nH]c1=O` ?
Reply text: false

Inquiry: How did this test come out for `CCNC(=O)Nc1ccc(-c2nc3c(c(N4CCOC[C@@H]4C)n2)CCN(C2COC2)C3)cc1` ?
Reply text: true

Inquiry: How did this test come out for `NCC(=O)Nc1ccc(-n2nc(C(F)(F)F)cc2-c2ccc3c(ccc4ccccc43)c2)cc1` ?
Reply text: false

Inquiry: How did this test come out for `COc1c(Nc2ncc(Cl)c(N[C@@H]3[C@H]4C=CC(C4)[C@@H]3C(N)=O)n2)ccc2c1CC[C@@H](N1CCOCC1)CC2` ?
Reply text: false

Inquiry: How did this test come out for `O=S(=O)(c1ccc2c(c1)C(=NO)c1cc(S(=O)(=O)N3CCCCC3)ccc1-2)N1CCCCC1` ?
Reply text: true
